Tested on: MS2 coat protein
Experiment: apparent KD of MS2 coat protein; designed switch direction (-1 OFF switch, 1 ON switch): 1; higher = weaker reporter binding
Details: input ligand: FMN 200 uM
Listing of entries alongside the reported apparent KD of MS2 coat protein.
Quick reminder: number only, in nM, skip the unit.

Below, each entry is followed by its recorded apparent KD of MS2 coat protein result.
seq	assay-metric	readout-units	meas-value
GUGGCUGCCACAGGAUAUACCGUGUAAUUCACGGUAGAAGGGUGAAGCACUCAAAAGAGUGCUAACAUGAGGAUCACCCAUGUG [Quzaon] (Eterna round: R96, puzzle: Same State NG 1)	apparent KD of MS2 coat protein	nM	1040
AUACUCAUGUAAGGAUAUGCAGCCGAAACGGCUGCAGAAGGUACUAUAAUACAUGAGGAUCACCCAUGUCAAAAUUAUUUAGUU [Mat - Same State NG 1 - JL mod - D99] (Eterna round: R96, puzzle: Same State NG 1)	apparent KD of MS2 coat protein	nM	19.5

Attention now turns to another entry.
**Query** Looking for the measured apparent KD of MS2 coat protein of AGGAAACAUGAGGAUCACCCAUGUAAAAAAGUGGGAGGAUAUACUAGAAGAAACAAAAUAGUAGAAGGCCUAAAAA [75%, Ex sub1, 32] (Eterna round: R96, puzzle: Same State 1) , can you help?
**Result** 19.1

----------
Test system: K4 kissing-loop RNA reporter
Assay: apparent KD of K4 kissing-loop reporter; higher = weaker reporter binding
Settings: Eterna round: R107; input ligand: none
The sequences listed here are annotated with their apparent KD of K4 kissing-loop reporter.
Respond with the bare value in nM.

Reference set (2 entries):
seq	apparent KD of K4 kissing-loop reporter / nM
AGCCAUCACACGGCCGCCACUGAGUAGUGAUGUUGCUUGUAAAUCAGUCACCGCAUUAAUGCCGACAGGACCGGGUGCAUCGAGG [theeternabot_exclusion_KL_Trp_B_17]	327
UUUUAAUAAAAGGAUACCAGUACAAAUAAAGUACAUUAAUAGUAGAGUGAUGUUCUAAAGUACCCUUGGCAGCUUAGAGUAAGUU [#17 K4 Theophylline B Exclusion]	160

**Query** # get_value(readout='apparent KD of K4 kissing-loop reporter', item= UGGCGGACGAUCCGGAGUGAUGUUCCGGAUACCAGCAGAAGAGCCUGCCCUUGGCAGCCGUGCGACGCUGGGAGAGUCCGGCGUC [Requered] )
**Result** 104

**Query** Return reported apparent KD of K4 kissing-loop reporter; argument: AAGGUUCGUGGAAGGAGCGCCCGUGCGACUCGUUCACUAAGUGAAGUCCGAGUGAUGUUCGGGCAGGUAGGUCGCCACGGGCAAA [Atonenge]
**Result** 152

**Query** Recorded apparent KD of K4 kissing-loop reporter for CCUAUCUCAUACGAUACCAGUCAAUGAUCUUUGAUCAAUGCCAUCACCGAGUGAUGUUCGGACCCUUGGCAGCGUAUGAGAUGGG [whbob_Ex_Theo_B_sa104] , please?
**Result** 255

**Query** Entry under review: AUGCGCGCGGCGGCCGCCACUCGCAUGAGAGUGAUGUUCUCGCCGGGCCCGCAAGGGCCCGGUGUGAGGACCGGGCCGGGCUGCG [#2 Same State - Tryptophan B Attempt #18 (HarryS)] . Reported apparent KD of K4 kissing-loop reporter?
**Result** 257

----------
System: K4 kissing-loop RNA reporter
Test: apparent KD of K4 kissing-loop reporter; higher = weaker reporter binding
Settings: Eterna round: R107; input ligand: arginine 13.2 mM
Label Satisfied when apparent KD of K4 kissing-loop reporter is at or above 100 nM; anything below gets Not satisfied.

Solved cases (4 shown):
seq	answer-label
UGGGUUGGAAGUGAUGUUUCUCUAAGUGAUACCAGACAAAAGAAAGUCCCUUGGCAGCACAAUGAUGCCAAGGAAACGGCAUGAU [#16 K4 Theophylline A Same State]	Satisfied
GUAUAUUAGGGAGACCUAAUAUAAAUAGAAGGAGCGUAGGAAACUACAGGUAGGUCGCUAAAUAUACAGUGAUGUUGUAUAAUGG [arg a same]	Satisfied
AGACCACAAAGUGGUCAGUGUUCGCUGCGGCGAGGACCGGUACGGCCGCCACUCGCGAGUGAUGUUCGCGAGCGCAGCGAACACA [Omei KL Tryp A Exc A v3]	Not satisfied
AAAUAGCUGACGUUGAGUGGGAGCCAGGCACGAGGACCGGUACGGCCGCCACUCGACUAGGUUUUCAGUGAUGUUGAAAAUUUAA [Exclusion Tryptophan A GF 5]	Satisfied

**Query** Record "AAGCAGUCACUCGAAUCCAUCGAAGAUGGGCGAGGACCGGUACGGCCGCCACUCGGAGUGAUGUUCCGCAGACUGCAAAAUAAAA" ; criterion: apparent KD of K4 kissing-loop reporter no lower than 100 nM. Met?
**Result** Satisfied

**Query** Test whether the sequence UGUAAGCGCGUAGAUACCAGCAGACGAGUGAUGUUCGAGAGAUUAAGGAAAAGAAAGUAAUGCCCUUGGCAGCUAAUCAUAAGCG [whbob_Ex_Theo_B_sa94] records apparent KD of K4 kissing-loop reporter of 100 nM or higher.
**Result** Satisfied

----------
Tested on: K4 kissing-loop RNA reporter
Assay: apparent KD of K4 kissing-loop reporter; higher = weaker reporter binding
Settings: Eterna round: R107; input ligand: none
assay-metric: apparent KD of K4 kissing-loop reporter (nM)
Response body: numeric value in nM, unit text excluded.

seq	assay-metric	readout-units	meas-value
GGGUCUGCGCGAAGGAGCGCCCUGACAGGUUGCUGCCGUGGGCAGUGAUGUUGCUCAGUCCGGCAGGUAGGUCGCGUGCAGACCC	apparent KD of K4 kissing-loop reporter	nM	176

**Query** Please provide the recorded apparent KD of K4 kissing-loop reporter for UGAUUUAACUGAAGGAGCGGCAAUUGAUAAGUAAAUAUAGUGAUGUUAUAUAAGAUAGAGAGCCAGGUAGGUCGCAGAGGUAUUU [ExArgB.N] , tested on K4 kissing-loop RNA reporter.
**Result** 154

**Query** Record lookup: for K4 kissing-loop RNA reporter, what apparent KD of K4 kissing-loop reporter belongs to AGAAUAAUAAAUUUGGAGUGAUGUUCCGGACGAGGACCGGUACGGCCGCCACUCGAAAGCAGUCUGCGAAAGCAGACUGCAAGGA [Tesla SS Tryp A 1] ?
**Result** 580

**Query** # get_value(readout= apparent KD of K4 kissing-loop reporter, system= K4 kissing-loop RNA reporter) for AAUAUAGUGAUGUUAUAUAAGAAGGAGUUACGAGGACCGGUACGGCCGCCACUCGAAACGAGUGAGGGCCCGGGAGAUUGGGCCC [SSTryptA.G]
**Result** 320

**Query** Give the reported apparent KD of K4 kissing-loop reporter for CCGGGCGGCCGAAGGAGCGGGCGGACCCGAGUGAUGUUCGGGUGGACCGUGAGGUCCGGUGCCCAGGUAGGUCGCGGUUCCGUCC [#2 Same State - Arginine B Attempt #6 (HarryS)] (system: K4 kissing-loop RNA reporter).
**Result** 159

**Query** Observed apparent KD of K4 kissing-loop reporter on K4 kissing-loop RNA reporter for UUUAUAAAGUCGGCCGCCACUGGAUUUAUAUUUGUUUAAUCUGGAUCAAAGUGAUGUUUUGAGUCCAGGACCGGGACAUUUGUUA [JR_ExcTryptoB_Sub002] , please.
**Result** 124

----------
Test system: K4 kissing-loop RNA reporter;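 further: bound reporter read as fluorescence of individual clusters on recovered sequencing chips by microscopy, with normalized cluster intensities fitted with a binding model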
Assay: apparent KD of K4 kissing-loop reporter; higher = weaker reporter binding
Settings: Eterna round: R107; input ligand: none
Classify by measured apparent KD of K4 kissing-loop reporter: Fulfilled if it is equal to or exceeds 200 nM, Not fulfilled if it is smaller.

# count of solved cases: 6
seq	answer-label
AAUAAGUGUCAGCGAGUGAUGUUCGACGAUACCAGACUCGAUAGAGUCCCUUGGCAGCGUAACGCAUGCCAAACUGGCACAAUAA [#SwitchBubble 8 #K4Early]	Fulfilled
UUAUCACCCUAAGGAUAUAGCUAAGUGAUGUUUAGCUCGUCGCAGGGUAAACACUAGGCCCAAAGGCUAGAAGGUAGCUGGUACC [theeternabot_exclusion_KL_FMN_B_35]	Not fulfilled
AAAUUCUUUUUUUUAUUUAACUUUUCAGAAGGAGCGUGGUAGUACACAGGUAGGUCGCUGAAUUUUAGACUAGUGAUGUUAGUUA [JR_SSArginiA_Sub008]	Not fulfilled
GCUAUGGUAGGAAGGAGCGCUUACUCGUUAAUAAGAGUGAUGUUCGAUAACGAGUAUUUAUAGCAGGUAGGUCGCCUACUAUAGC [Arginine B K4 4]	Not fulfilled
AUUAAUAACUGAGGAUAUCGUUUUACUGUAGUGAUGUUACAGAAAAUGCACAUUAUAAUUUCUAUUCGAGAAGGCAGAAUAAUUA [JR_ExcFMNB_Sub013]	Not fulfilled
UCGCAUCUCAGAAGGAGCGACAGUGAUUCUGAUAGAAAUCUGAGUGAUGUUCAGAACAGCUGUCAGGUAGGUCGCUGAGAUGCGA [Arg B Ex t8]	Fulfilled

**Query** Check if apparent KD of K4 kissing-loop reporter >= 200 nM (inclusive). Item: "CCAGCAAAGCUGGUCGCCAAACAACGGGCACGAGGACCGGUACGGCCGCCACUCGUGAGGACGAGUGAUGUUCGUUCACGGGCGA"
**Result** Fulfilled

**Query** Quick check, apparent KD of K4 kissing-loop reporter >= 200 nM? "CCUGGCGAGGUAACGUGGAUAUCUCGUCGCAAGGAUAUCUGGAAACAGAGAAGGUGCUACAUUACCGGCAGUGAUGUUGCUGACC"
**Result** Fulfilled
